Listed next: entries and their corresponding inhibition at 0.1 µM.
target_or_system: human H-PGDS (Homo sapiens, UniProt O60760)
Sequence (O60760 whole entry): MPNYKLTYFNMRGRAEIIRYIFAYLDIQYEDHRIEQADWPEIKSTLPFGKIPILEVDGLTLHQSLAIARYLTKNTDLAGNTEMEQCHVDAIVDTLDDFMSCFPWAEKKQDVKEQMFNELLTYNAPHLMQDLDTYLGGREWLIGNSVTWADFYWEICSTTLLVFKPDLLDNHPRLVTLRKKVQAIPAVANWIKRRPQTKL
experiment: Hematopoietic prostaglandin D synthase (H-PGDS) inhibiting action, [14C]PGH2 to PGD2 conversion, TLC radioassay
Type: biochemical
measurement_parameters: compound 0.1 μM; inhibition rate relative to solvent control group; [14C] prostaglandin H2 10 μM, 25° C.; read-out: H-PGDS inh. (% at 0.1 μM)
The answer should read as a number with its unit following.

Sample answers from the record:
Cc1nccn1Cc1cnc(NC(=O)N2CCC(=Cc3cc(F)ccc3F)CC2)s1 [Example 82]: 82.7%
O=C(Nc1nccs1)N1CCC(NC(=O)N2CCC(=Cc3cc(F)ccc3F)CC2)CC1 [Example 65]: 55.4%
N#Cc1cccc(CN2CCC(NC(=O)N3CCC(=Cc4cc(F)ccc4F)CC3)CC2)c1 [Example 37]: 64.8%

// inhibition at 0.1 µM lookup, compound = O=C(Nc1ncc(CN2CCOCC2)s1)N1CCC(=Cc2cc(F)ccc2F)CC1 [Example 84] , result: 78.5%

----------
Listed next: entries and their corresponding inhibition at 0.1 µM.
target_or_system: UniProt:O60760
experiment: Hematopoietic prostaglandin D synthase (H-PGDS) inhibiting action, [14C]PGH2 to PGD2 conversion, TLC radioassay
Assay type: biochemical
measurement_parameters: compound 0.1 μM; inhibition rate relative to solvent control group; [14C] prostaglandin H2 10 μM, 25° C.; read-out: H-PGDS inh. (% at 0.1 μM)
Report only the number, with the unit % understood.

Sample answers from the record:
O=C(NC1CCN(C(=O)c2cccc(F)c2)CC1)N1CCC(=Cc2cc(F)ccc2F)CC1: 67.7
O=C(Nc1ncc(Cn2cncn2)s1)N1CCC(=Cc2cc(F)ccc2F)CC1: 72.8
O=C(Nc1ccccc1)Nc1ccc(NC(=O)N2CCC(=Cc3cc(F)ccc3F)CC2)cc1: 71
CS(=O)(=O)NC(=O)c1ccc(-c2cnc(NC(=O)N3CCC(=Cc4ccccn4)CC3)s2)cc1: 65.9
O=C(Nc1ccc(NC(=O)N2CCC(=Cc3cc(F)ccc3F)CC2)cn1)c1ccccn1: 56.8
O=C(NC1CCN(C(=O)c2cccs2)CC1)N1CCC(=Cc2cc(F)ccc2F)CC1: 85.9

// inhibition at 0.1 µM lookup, compound = O=C(Nc1ccc(OCc2ccccc2)cc1)N1CCC(=Cc2cc(F)ccc2F)CC1 , result: 51.3

// inhibition at 0.1 µM lookup, compound = O=C(Nc1nccs1)c1ccc(-c2cnc(NC(=O)N3CCC(=Cc4ccccn4)CC3)s2)cc1 , result: 66.5

----------
Listed next: entries and their corresponding inhibition at 0.1 µM.
target_or_system: human H-PGDS (Homo sapiens, UniProt O60760)
experiment: Hematopoietic prostaglandin D synthase (H-PGDS) inhibiting action, [14C]PGH2 to PGD2 conversion, TLC radioassay
Format: biochemical
measurement_parameters: compound 0.1 μM; inhibition rate relative to solvent control group; [14C] prostaglandin H2 10 μM, 25° C.; read-out: H-PGDS inh. (% at 0.1 μM)
Report only the number, with the unit % understood.

Sample answers from the record:
O=C(NC1CC1)c1ccc(-c2ccc(NC(=O)N3CCC(=Cc4ccccn4)CC3)cn2)cc1 [Example 30]: 67.1
O=C(NC1CCN(C(=O)C2CCCCC2)CC1)N1CCC(=Cc2cc(F)ccc2F)CC1 [Example 49]: 39.6
O=C(Nc1ccc(Oc2ncccn2)cc1)N1CCC(=Cc2cc(F)ccc2F)CC1 [Example 70]: 84.2

// inhibition at 0.1 µM lookup, molecule = O=C(NS(=O)(=O)c1ccccc1)c1ccc(-c2cnc(NC(=O)N3CCC(=Cc4ccccn4)CC3)s2)cc1 [Example 24] , result: 68.2

// inhibition at 0.1 µM lookup, molecule = O=C(Nc1ccc(NC(=O)N2CCC(=Cc3cc(F)ccc3F)CC2)cn1)c1cscn1 [Example 80] , result: 66

// inhibition at 0.1 µM lookup, molecule = CS(=O)(=O)NC(=O)c1ccc(-c2ccc(NC(=O)N3CCC(=Cc4ccccn4)CC3)cn2)cc1 [Example 32] , result: 76.1

// inhibition at 0.1 µM lookup, molecule = O=C(Nc1ccccc1)N1CCC(NC(=O)N2CCC(=Cc3cc(F)ccc3F)CC2)CC1 [Example 56] , result: 59.3

// inhibition at 0.1 µM lookup, molecule = CC(C)C(=O)N1CCC(NC(=O)N2CCC(=Cc3cc(F)ccc3F)CC2)CC1 [Example 48] , result: 65.7

----------
target_or_system: human H-PGDS (Homo sapiens)
experiment: Hematopoietic prostaglandin D synthase (H-PGDS) inhibiting action, [14C]PGH2 to PGD2 conversion, TLC radioassay
Type: biochemical
measurement_parameters: compound 0.1 μM; inhibition rate relative to solvent control group; [14C] prostaglandin H2 10 μM, 25° C.; read-out: H-PGDS inh. (% at 0.1 μM)
Listed next: entries and their corresponding inhibition at 0.1 µM.
Report only the number, with the unit % understood.

O=C(Nc1cnc2ccccc2c1)N1CCC(=Cc2ccccn2)CC1: 35
O=C(Nc1ncc(C(=O)N2CCOCC2)s1)N1CCC(=Cc2cc(F)ccc2F)CC1: 80.8

// inhibition at 0.1 µM lookup, compound = CC(C)(C)C(=O)N1CCC(NC(=O)N2CCC(=Cc3cc(F)ccc3F)CC2)CC1 , result: 77.3

// inhibition at 0.1 µM lookup, compound = CN(C)C(=O)c1ccc(-c2ccc(NC(=O)N3CCC(=Cc4ccccn4)CC3)cn2)cc1 , result: 52.9

----------
target_or_system: UniProt O60760
experiment: Hematopoietic prostaglandin D synthase (H-PGDS) inhibiting action, [14C]PGH2 to PGD2 conversion, TLC radioassay
Type: biochemical
measurement_parameters: compound 0.1 μM; inhibition rate relative to solvent control group; [14C] prostaglandin H2 10 μM, 25° C.; read-out: H-PGDS inh. (% at 0.1 μM)
Would you please tag the item Met when its inhibition at 0.1 µM is 70% or above, and Not met when it is below?

-- ask For this compound, is measured inhibition at 0.1 µM 70% or higher? O=C(O)c1ccc(-c2ncc(NC(=O)N3CCC(=Cc4ccccn4)CC3)cn2)cc1
-- reply Not met

-- ask For this compound, is measured inhibition at 0.1 µM 70% or higher? O=C(O)c1ccc(-c2cnc(NC(=O)N3CCC(=Cc4ccccn4)CC3)s2)nc1
-- reply Not met

-- ask For this compound, is measured inhibition at 0.1 µM 70% or higher? O=C(Nc1ccc(Nc2ccccc2)cc1)N1CCC(=Cc2ccccn2)CC1
-- reply Not met

-- ask For this compound, is measured inhibition at 0.1 µM 70% or higher? O=C(NC1CCN(C(=O)c2cscn2)CC1)N1CCC(=Cc2cc(F)ccc2F)CC1
-- reply Met

-- ask For this compound, is measured inhibition at 0.1 µM 70% or higher? COc1ccc(-c2ccc3nc(NC(=O)N4CCC(=Cc5ccccn5)CC4)sc3c2)cn1
-- reply Met

-- ask For this compound, is measured inhibition at 0.1 µM 70% or higher? O=C(NC1CCN(CC(F)(F)F)CC1)N1CCC(=Cc2cc(F)ccc2F)CC1
-- reply Met

----------
Listed next: entries and their corresponding inhibition at 0.1 µM.
target_or_system: UniProt:O60760
experiment: Hematopoietic prostaglandin D synthase (H-PGDS) inhibiting action, [14C]PGH2 to PGD2 conversion, TLC radioassay
Format: biochemical
measurement_parameters: compound 0.1 μM; inhibition rate relative to solvent control group; [14C] prostaglandin H2 10 μM, 25° C.; read-out: H-PGDS inh. (% at 0.1 μM)
Report only the number, with the unit % understood.

O=C(Nc1nc2ccc(-c3cncnc3)cc2s1)N1CCC(=Cc2ccccn2)CC1 [Example 6]: 78.8
O=C(Nc1nc2ccc(-c3cccnc3)cc2s1)N1CCC(=Cc2ccccn2)CC1 [Example 3]: 85.7
O=C(Nc1nc2ccc(-c3ccncc3)cc2s1)N1CCC(=Cc2ccccn2)CC1 [Example 5]: 77.8
O=C(Nc1ccccn1)N1CCC(NC(=O)N2CCC(=Cc3cc(F)ccc3F)CC2)CC1 [Example 64]: 51
O=C(NC1CCN(C(=O)C2CC2)CC1)N1CCC(=Cc2cc(F)ccc2F)CC1 [Example 45]: 48.8

// inhibition at 0.1 µM lookup, compound = CC(F)(F)C(=O)N1CCC(NC(=O)N2CCC(=Cc3cc(F)ccc3F)CC2)CC1 [Example 40] , result: 71.4

// inhibition at 0.1 µM lookup, compound = Cc1cccnc1C(=O)N1CCC(NC(=O)N2CCC(=Cc3cc(F)ccc3F)CC2)CC1 [Example 62] , result: 54.2

// inhibition at 0.1 µM lookup, compound = O=C(Nc1ncc(C(=O)N2CCCCC2)s1)N1CCC(=Cc2ccccn2)CC1 [Example 17] , result: 65

// inhibition at 0.1 µM lookup, compound = O=C(NC1CCN(CC(F)F)CC1)N1CCC(=Cc2cc(F)ccc2F)CC1 [Example 44] , result: 81

// inhibition at 0.1 µM lookup, compound = O=C(NC1CCN(C(=O)c2ccccc2)CC1)N1CCC(=Cc2cc(F)ccc2F)CC1 [Example 47] , result: 62

// inhibition at 0.1 µM lookup, compound = O=C(O)c1ccc(-c2cnc(NC(=O)N3CCC(=Cc4ccccn4)CC3)s2)cc1 [Example 20] , result: 61.4

// inhibition at 0.1 µM lookup, compound = COc1ncccc1-c1ccc2nc(NC(=O)N3CCC(=Cc4ccccn4)CC3)sc2c1 [Example 9] , result: 76.6

// inhibition at 0.1 µM lookup, compound = O=C(Nc1ccc(NC(=O)N2CCC(=Cc3cc(F)ccc3F)CC2)cc1)c1ccccn1 [Example 74] , result: 70.9
